System: HBeAg
Assay: HBeAg, multiplex assay, HBV-infected PHH
Format: cell-based
Conditions: Hepatitis B virus, 240 h, read-out: HBeAg IC50 (μM) Median, PHH, patient-derived HBV GT A, MOI 40, day 10 pi
quantity_name: IC50 (µM)
Numbers only, in µM.

Fill in reported IC50 for this entry: O=C(NC(CO)CO)c1c[nH]c2ncc(C3CC3)nc12
0.4

---

System: albumin (secreted, cellular toxicity marker)
Assay: Albumin (in vitro tox), HepaRG
Type: cell-based
Conditions: human, HepG2.2.15-derived HBV GT D, MOI 40, read-out: In vitro tox albumin IC50 (μM) Median
quantity_name: IC50

Please report IC50 for the following compound: O=C(NC(CO)CO)c1c[nH]c2ncc(C3CC3)nc12
24.9 µM
